# Measurement Protocol: Solubility determination (equilibrium solubility, 24 hrs stirring at room temperature, HPLC)
# Format: physicochemical
# Particulars: FaSSGF; target concentration 2000 µg/mL; 24 hrs
# Experimental: The stability and solubility of the crystalline free form of the compound of formula (I) or the basic salt thereof of the present application were determined by HPLC. The desired amount of the compound was weighed into a glass vial, and the desired amount of a vehicle was added. A stir bar was added to the vial, and the mixture was stirred at room temperature for 24 hrs. […] The pH value of the filtrate was determined, and the sample was diluted with MeOH. […]
Where a name gives a salt, the structure may show the parent alone.
Label Met when Equilibrium solubility is at or above 90 µg/mL; otherwise label Not met.

Molecule | Class
Cc1c(NC(=O)c2cc(C3CC3)c(CN3CCCC[C@H]3C(=O)O)cn2)cccc1-c1cccc(NC(=O)c2cc(C3CC3)c(CN3CCCC[C@H]3C(=O)O)cn2)c1C [crystalline form B of disodium salt anhydrate] | Met
Cc1c(NC(=O)c2cc(C3CC3)c(CN3CCCC[C@H]3C(=O)O)cn2)cccc1-c1cccc(NC(=O)c2cc(C3CC3)c(CN3CCCC[C@H]3C(=O)O)cn2)c1C [free-form crystalline form C] | Not met
Cc1c(NC(=O)c2cc(C3CC3)c(CN3CCCC[C@H]3C(=O)O)cn2)cccc1-c1cccc(NC(=O)c2cc(C3CC3)c(CN3CCCC[C@H]3C(=O)O)cn2)c1C [free-form crystalline form F] | Met
Cc1c(NC(=O)c2cc(C3CC3)c(CN3CCCC[C@H]3C(=O)O)cn2)cccc1-c1cccc(NC(=O)c2cc(C3CC3)c(CN3CCCC[C@H]3C(=O)O)cn2)c1C [crystalline form A of disodium salt hydrate] | Not met
Cc1c(NC(=O)c2cc(C3CC3)c(CN3CCCC[C@H]3C(=O)O)cn2)cccc1-c1cccc(NC(=O)c2cc(C3CC3)c(CN3CCCC[C@H]3C(=O)O)cn2)c1C [free-form crystalline form D] | Not met

* * *

# Measurement Protocol: Hygroscopic behavior test by dynamic vapor sorption (DVS)
# Format: physicochemical
# Particulars: Relative humidity 40.0 % at 25 °C
Structures can show the parent of a compound that is named as a salt.

Compound | Hygroscopic weight increase (%)
Cc1c(NC(=O)c2cc(C3CC3)c(CN3CCCC[C@H]3C(=O)O)cn2)cccc1-c1cccc(NC(=O)c2cc(C3CC3)c(CN3CCCC[C@H]3C(=O)O)cn2)c1C [crystalline form A of disodium salt hydrate] | 10.62
Cc1c(NC(=O)c2cc(C3CC3)c(CN3CCCC[C@H]3C(=O)O)cn2)cccc1-c1cccc(NC(=O)c2cc(C3CC3)c(CN3CCCC[C@H]3C(=O)O)cn2)c1C [free-form crystalline form D] | 1.85
Cc1c(NC(=O)c2cc(C3CC3)c(CN3CCCC[C@H]3C(=O)O)cn2)cccc1-c1cccc(NC(=O)c2cc(C3CC3)c(CN3CCCC[C@H]3C(=O)O)cn2)c1C [free-form crystalline form F] | 0.84
Cc1c(NC(=O)c2cc(C3CC3)c(CN3CCCC[C@H]3C(=O)O)cn2)cccc1-c1cccc(NC(=O)c2cc(C3CC3)c(CN3CCCC[C@H]3C(=O)O)cn2)c1C [free-form crystalline form C] | 1.20

* * *

A collection of compounds and their measured Hygroscopic weight increase (%)
# Measurement Protocol: Hygroscopic behavior test by dynamic vapor sorption (DVS)
# Type: physicochemical
# Particulars: Relative humidity 30.0 % at 25 °C
Structures can show the parent of a compound that is named as a salt.
Measured Quantity: Hygroscopic weight increase (%)

Compound | Numeric Result
Cc1c(NC(=O)c2cc(C3CC3)c(CN3CCCC[C@H]3C(=O)O)cn2)cccc1-c1cccc(NC(=O)c2cc(C3CC3)c(CN3CCCC[C@H]3C(=O)O)cn2)c1C [free-form crystalline form C] | 0.80
Cc1c(NC(=O)c2cc(C3CC3)c(CN3CCCC[C@H]3C(=O)O)cn2)cccc1-c1cccc(NC(=O)c2cc(C3CC3)c(CN3CCCC[C@H]3C(=O)O)cn2)c1C [crystalline form A of disodium salt hydrate] | 9.28
Cc1c(NC(=O)c2cc(C3CC3)c(CN3CCCC[C@H]3C(=O)O)cn2)cccc1-c1cccc(NC(=O)c2cc(C3CC3)c(CN3CCCC[C@H]3C(=O)O)cn2)c1C [free-form crystalline form D] | 1.34
Cc1c(NC(=O)c2cc(C3CC3)c(CN3CCCC[C@H]3C(=O)O)cn2)cccc1-c1cccc(NC(=O)c2cc(C3CC3)c(CN3CCCC[C@H]3C(=O)O)cn2)c1C [free-form crystalline form F] | 0.60

* * *

# Measurement Protocol: Solubility determination (equilibrium solubility, 24 hrs stirring at room temperature, HPLC)
# Type: physicochemical
# Particulars: FeSSIF; target concentration 2000 µg/mL; 24 hrs
Structures can show the parent of a compound that is named as a salt.
Measured Quantity: Equilibrium solubility

Molecule | Result
Cc1c(NC(=O)c2cc(C3CC3)c(CN3CCCC[C@H]3C(=O)O)cn2)cccc1-c1cccc(NC(=O)c2cc(C3CC3)c(CN3CCCC[C@H]3C(=O)O)cn2)c1C [free-form crystalline form C] | 5.34 µg/mL
Cc1c(NC(=O)c2cc(C3CC3)c(CN3CCCC[C@H]3C(=O)O)cn2)cccc1-c1cccc(NC(=O)c2cc(C3CC3)c(CN3CCCC[C@H]3C(=O)O)cn2)c1C [crystalline form B of disodium salt anhydrate] | ≥ 2000 µg/mL
Cc1c(NC(=O)c2cc(C3CC3)c(CN3CCCC[C@H]3C(=O)O)cn2)cccc1-c1cccc(NC(=O)c2cc(C3CC3)c(CN3CCCC[C@H]3C(=O)O)cn2)c1C [free-form crystalline form F] | 1723.16 µg/mL
Cc1c(NC(=O)c2cc(C3CC3)c(CN3CCCC[C@H]3C(=O)O)cn2)cccc1-c1cccc(NC(=O)c2cc(C3CC3)c(CN3CCCC[C@H]3C(=O)O)cn2)c1C [crystalline form A of disodium salt hydrate] | > 2000 µg/mL
Cc1c(NC(=O)c2cc(C3CC3)c(CN3CCCC[C@H]3C(=O)O)cn2)cccc1-c1cccc(NC(=O)c2cc(C3CC3)c(CN3CCCC[C@H]3C(=O)O)cn2)c1C [free-form crystalline form D] | 433.75 µg/mL

* * *

# Measurement Protocol: Stability determination (thermal stability and photostability, HPLC purity, appearance, XRPD)
# Type: physicochemical
# Particulars: 50 °C, 7 days
Counter-ions that a name gives are not always drawn.

Compound | Unit Tag | Purity (%)
Cc1c(NC(=O)c2cc(C3CC3)c(CN3CCCC[C@H]3C(=O)O)cn2)cccc1-c1cccc(NC(=O)c2cc(C3CC3)c(CN3CCCC[C@H]3C(=O)O)cn2)c1C [crystalline form B of disodium salt anhydrate] | % | 92.11
Cc1c(NC(=O)c2cc(C3CC3)c(CN3CCCC[C@H]3C(=O)O)cn2)cccc1-c1cccc(NC(=O)c2cc(C3CC3)c(CN3CCCC[C@H]3C(=O)O)cn2)c1C [free-form crystalline form C] | % | 98.31
Cc1c(NC(=O)c2cc(C3CC3)c(CN3CCCC[C@H]3C(=O)O)cn2)cccc1-c1cccc(NC(=O)c2cc(C3CC3)c(CN3CCCC[C@H]3C(=O)O)cn2)c1C [crystalline form A of disodium salt hydrate] | % | 99.45
Cc1c(NC(=O)c2cc(C3CC3)c(CN3CCCC[C@H]3C(=O)O)cn2)cccc1-c1cccc(NC(=O)c2cc(C3CC3)c(CN3CCCC[C@H]3C(=O)O)cn2)c1C [free-form crystalline form D] | % | 98.13

* * *

# Measurement Protocol: Solubility determination (equilibrium solubility, 24 hrs stirring at room temperature, HPLC)
# Assay type: physicochemical
# Particulars: pH 4.7, 50 mM acetic acid buffer; target concentration 2000 µg/mL; 24 hrs
Structures can show the parent of a compound that is named as a salt.
Measured Quantity: Equilibrium solubility (µg/mL)

Molecule | Numeric Result
Cc1c(NC(=O)c2cc(C3CC3)c(CN3CCCC[C@H]3C(=O)O)cn2)cccc1-c1cccc(NC(=O)c2cc(C3CC3)c(CN3CCCC[C@H]3C(=O)O)cn2)c1C [crystalline form A of disodium salt hydrate] | 25
Cc1c(NC(=O)c2cc(C3CC3)c(CN3CCCC[C@H]3C(=O)O)cn2)cccc1-c1cccc(NC(=O)c2cc(C3CC3)c(CN3CCCC[C@H]3C(=O)O)cn2)c1C [free-form crystalline form F] | 67.33
Cc1c(NC(=O)c2cc(C3CC3)c(CN3CCCC[C@H]3C(=O)O)cn2)cccc1-c1cccc(NC(=O)c2cc(C3CC3)c(CN3CCCC[C@H]3C(=O)O)cn2)c1C [crystalline form B of disodium salt anhydrate] | 135
Cc1c(NC(=O)c2cc(C3CC3)c(CN3CCCC[C@H]3C(=O)O)cn2)cccc1-c1cccc(NC(=O)c2cc(C3CC3)c(CN3CCCC[C@H]3C(=O)O)cn2)c1C [free-form crystalline form C] | 3.3
Cc1c(NC(=O)c2cc(C3CC3)c(CN3CCCC[C@H]3C(=O)O)cn2)cccc1-c1cccc(NC(=O)c2cc(C3CC3)c(CN3CCCC[C@H]3C(=O)O)cn2)c1C [free-form crystalline form D] | 47.41
